Tested on: GRα and GRβ
experiment-notes: GRα and GRβ expression levels in Raji cells transfected with oligonucleotide (RT-PCR and PCR);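 also: mean of three independent experiments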
Type: cell-based, human
measurement-setup: expression level (band intensity), oligonucleotide 300 nM by electroporation, 24 h
experimental-endpoint: GRα

Answered examples (4):
>  <substance>
Oligonucleotide 5: an oligonucleotide having a base sequence represented by SEQ ID NO: 5 (5′-CAGATTTTTTTATTATGATGT-3′) (listed as DNA, chemistry not given here)

>  <recorded-measurement>
3210.228

$$$$
>  <substance>
Oligonucleotide 4: an oligonucleotide having a base sequence represented by SEQ ID NO: 4 (5′-TTTGTCCCCATTATATAGCATTT-3′) (listed as DNA, chemistry not given here)

>  <recorded-measurement>
3157.440

$$$$
>  <substance>
Oligonucleotide 2: an oligonucleotide having a base sequence represented by SEQ ID NO: 2 (5′-AAAAGGGCACAGCTTCTTTTCCCATTTAATGAAA-3′) (listed as DNA, chemistry not given here)

>  <recorded-measurement>
3340.440

$$$$
>  <substance>
Oligonucleotide 1: an oligonucleotide having a base sequence represented by SEQ ID NO: 1 (5′-CTTTCTGGTTTTAACCACATAACATTCTATA-3′) (listed as DNA, chemistry not given here)

>  <recorded-measurement>
3278.767

$$$$

Could you now look at the following substance, please?
Field: GRα (GRα and GRβ). Entry: Oligonucleotide 3: an oligonucleotide having a base sequence represented by SEQ ID NO: 3 (5′-TAAGATGACTTTCTTTTCCCCCACGTATCCT-3′) (listed as DNA, chemistry not given here) 3177.814
